The origin of these recorded values is paper PMC8682075.

target: MMUT WT (Homo sapiens); experiment: Activity screen; format: biochemical; conditions: cobamide 1 μM, MMUT WT 0.01 μM, 30 minutes
Sequence (P22033 33-750): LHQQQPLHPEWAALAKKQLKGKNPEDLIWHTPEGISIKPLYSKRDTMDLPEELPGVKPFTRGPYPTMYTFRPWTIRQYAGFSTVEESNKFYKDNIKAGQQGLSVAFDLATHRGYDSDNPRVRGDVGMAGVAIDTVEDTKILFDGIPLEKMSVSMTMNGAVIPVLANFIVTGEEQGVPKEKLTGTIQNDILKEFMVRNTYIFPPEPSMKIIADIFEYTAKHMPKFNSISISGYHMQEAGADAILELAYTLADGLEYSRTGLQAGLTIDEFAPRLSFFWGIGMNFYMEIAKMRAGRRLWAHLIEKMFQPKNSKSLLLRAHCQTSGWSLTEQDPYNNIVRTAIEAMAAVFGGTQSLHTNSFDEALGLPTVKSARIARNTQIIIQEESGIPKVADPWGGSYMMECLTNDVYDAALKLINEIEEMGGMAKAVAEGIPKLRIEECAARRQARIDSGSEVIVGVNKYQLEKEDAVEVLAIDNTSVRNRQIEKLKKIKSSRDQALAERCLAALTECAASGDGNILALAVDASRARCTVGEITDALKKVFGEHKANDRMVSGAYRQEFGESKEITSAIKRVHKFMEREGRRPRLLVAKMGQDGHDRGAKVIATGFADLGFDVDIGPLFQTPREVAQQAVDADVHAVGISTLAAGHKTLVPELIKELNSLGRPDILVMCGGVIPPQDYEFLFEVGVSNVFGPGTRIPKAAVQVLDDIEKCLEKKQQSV
metric: activity of WT MMUT with the cobamide (in words)

Study these solved cases before continuing.
1) C/C1=C2/[N-][C@H]([C@H](CC(N)=O)[C@@]2(C)CCC(=O)NC[C@@H](C)OP(=O)([O-])O[C@H]2[C@@H](O)[C@@H](Oc3ccccc3)O[C@@H]2CO)[C@]2(C)N=C(/C(C)=C3N=C(/C=C4N=C1[C@@H](CCC(N)=O)C\4(C)C)[C@@H](CCC(N)=O)[C@]\3(C)CC(N)=O)[C@@H](CCC(N)=O)[C@]2(C)CC(N)=O.[CH2-][C@H]1O[C@@H](n2cnc3c(N)ncnc32)[C@H](O)[C@@H]1O.[Co+3] [Ado[Phe]Cba, adenosylphenolylcobamide] = active
2) C/C1=C2/[N-][C@H]([C@H](CC(N)=O)[C@@]2(C)CCC(=O)NC[C@@H](C)OP(=O)([O-])O[C@H]2[C@@H](O)[C@@H](n3cnc4cc(C)c(C)cc43)O[C@@H]2CO)[C@]2(C)N=C(/C(C)=C3N=C(/C=C4N=C1[C@@H](CCC(N)=O)C\4(C)C)[C@@H](CCC(N)=O)[C@]\3(C)CC(N)=O)[C@@H](CCC(N)=O)[C@]2(C)CC(N)=O.[CH2-][C@H]1O[C@@H](n2cnc3c(N)ncnc32)[C@H](O)[C@@H]1O.[Co] [AdoCbl, adenosylcobalamin, reference compound] = active
3) C/C1=C2/[N-][C@H]([C@H](CC(N)=O)[C@@]2(C)CCC(=O)NC[C@@H](C)OP(=O)([O-])O[C@H]2[C@@H](O)[C@@H](Oc3ccc(C)cc3)O[C@@H]2CO)[C@]2(C)N=C(/C(C)=C3N=C(/C=C4N=C1[C@@H](CCC(N)=O)C\4(C)C)[C@@H](CCC(N)=O)[C@]\3(C)CC(N)=O)[C@@H](CCC(N)=O)[C@]2(C)CC(N)=O.[CH2-][C@H]1O[C@@H](n2cnc3c(N)ncnc32)[C@H](O)[C@@H]1O.[Co+3] [Ado[Cre]Cba] = active
4) C/C1=C2/[N-][C@H]([C@H](CC(N)=O)[C@@]2(C)CCC(=O)NC[C@@H](C)OP(=O)([O-])O[C@H]2[C@@H](O)[C@@H](n3cnc4cc(C)ccc43)O[C@@H]2CO)[C@]2(C)N=C(/C(C)=C3N=C(/C=C4N=C1[C@@H](CCC(N)=O)C\4(C)C)[C@@H](CCC(N)=O)[C@]\3(C)CC(N)=O)[C@@H](CCC(N)=O)[C@]2(C)CC(N)=O.[CH2-][C@H]1O[C@@H](n2cnc3c(N)ncnc32)[C@H](O)[C@@H]1O.[Co+3] [Ado[5-MeBza]Cba] = active
5) C/C1=C2/[N-][C@H]([C@H](CC(N)=O)[C@@]2(C)CCC(=O)NC[C@@H](C)OP(=O)([O-])O[C@H]2[C@@H](O)[C@@H](n3cnc4cccc(C)c43)O[C@@H]2CO)[C@]2(C)N=C(/C(C)=C3N=C(/C=C4N=C1[C@@H](CCC(N)=O)C\4(C)C)[C@@H](CCC(N)=O)[C@]\3(C)CC(N)=O)[C@@H](CCC(N)=O)[C@]2(C)CC(N)=O.[CH2-][C@H]1O[C@@H](n2cnc3c(N)ncnc32)[C@H](O)[C@@H]1O.[Co+3] [J, 7-methylbenzimidazolylcobamide] = active

# input Can you look up the measured activity of WT MMUT with the cobamide (in words) of C/C1=C2/[N-][C@H]([C@H](CC(N)=O)[C@@]2(C)CCC(=O)NC[C@@H](C)OP(=O)([O-])O[C@H]2[C@@H](O)[C@@H](n3cnc4ccccc43)O[C@@H]2CO)[C@]2(C)N=C(/C(C)=C3N=C(/C=C4N=C1[C@@H](CCC(N)=O)C\4(C)C)[C@@H](CCC(N)=O)[C@]\3(C)CC(N)=O)[C@@H](CCC(N)=O)[C@]2(C)CC(N)=O.[CH2-][C@H]1O[C@@H](n2cnc3c(N)ncnc32)[C@H](O)[C@@H]1O.[Co+3] [Ado[Bza]Cba] for me?
# output active

# input Can you look up the measured activity of WT MMUT with the cobamide (in words) of C/C1=C2/[N-][C@H]([C@H](CC(N)=O)[C@@]2(C)CCC(=O)NC[C@@H](C)OP(=O)([O-])O[C@H]2[C@@H](O)[C@@H](n3cnc4cccc(N)c43)O[C@@H]2CO)[C@]2(C)N=C(/C(C)=C3N=C(/C=C4N=C1[C@@H](CCC(N)=O)C\4(C)C)[C@@H](CCC(N)=O)[C@]\3(C)CC(N)=O)[C@@H](CCC(N)=O)[C@]2(C)CC(N)=O.[CH2-][C@H]1O[C@@H](n2cnc3c(N)ncnc32)[C@H](O)[C@@H]1O.[Co+3] [K, 7-aminobenzimidazolylcobamide] for me?
# output active
